Here's a batch of compounds along with measured Ki for Carbonic anhydrase V (Homo sapiens, UniProt Q9Y2D0+P35218).
Numbers only, in mM.

Recorded Ki, per entry:
Compound	Units Label	Ki
I [IODIDE]	mM	25
S [HYDROGEN SULFIDE]	mM	0.02
NS(=O)(=O)O [SULFAMATE]	mM	0.12

Provide Ki for all items below, preserving their order.
1. Cl [HYDROCHLORIC ACID]
2. O=[N+]([O-])O
3. O=S(=O)(O)O
4. OB(O)c1ccccc1

Result block:
1. 156
2. 16
3. 680
4. 4.51

====

Would you kindly list Ki for each of these compounds?
Experimental System: Carbonic anhydrase 13 (Mus musculus)
Sequence (Q9D6N1 whole entry): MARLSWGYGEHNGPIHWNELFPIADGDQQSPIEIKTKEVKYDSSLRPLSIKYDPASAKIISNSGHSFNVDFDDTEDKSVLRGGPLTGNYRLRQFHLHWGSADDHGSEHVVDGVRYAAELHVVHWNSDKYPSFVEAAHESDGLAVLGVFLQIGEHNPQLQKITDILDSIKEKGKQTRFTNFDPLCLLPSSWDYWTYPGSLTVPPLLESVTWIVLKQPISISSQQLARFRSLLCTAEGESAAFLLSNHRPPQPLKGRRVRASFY
Please answer using the number first and the unit second.

Would you please look over these solved cases?
Compound	Ki
F [FLUORIDE ION]	3 mM
O=NO [NITROUS ACID]	12.6 mM
NS(=O)(=O)O [SULFAMATE]	21.5 mM
O=S(=O)(O)O [SULFURIC ACID]	267 mM
S [HYDROGEN SULFIDE]	5.2 mM

Query block: Give Ki (Carbonic anhydrase 13 (Mus musculus)) of the following compound: Br [BROMIDE]
Result block: 45 mM

====

Experimental System: Carbonic anhydrase 1 (Homo sapiens)
Sequence (P00915 whole entry): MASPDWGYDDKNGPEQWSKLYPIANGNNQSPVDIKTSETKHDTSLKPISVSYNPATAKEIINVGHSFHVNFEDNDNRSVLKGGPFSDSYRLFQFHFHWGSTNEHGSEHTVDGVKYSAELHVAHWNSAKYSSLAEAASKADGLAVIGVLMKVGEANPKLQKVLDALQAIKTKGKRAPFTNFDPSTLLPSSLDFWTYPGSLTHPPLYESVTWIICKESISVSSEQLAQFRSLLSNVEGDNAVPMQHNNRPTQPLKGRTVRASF
Property Measured: Ki (mM)
Answers are plain numbers, in mM.

Query block: Quick one: Ki of O=S(O)O [SULFUROUS ACID] ?
Result block: 18

====

These compounds were tested on UniProt:Q9D6N1; log10(Ki) is the recorded read-out.
# log10 transformed; quantity=Ki; unit=mM

Compound	Property Measured	Recorded Value
O=S(O)O	log10(Ki)	1.88
OB(O)c1ccccc1	log10(Ki)	0.45
Cl [HYDROCHLORIC ACID]	log10(Ki)	2.14
NS(N)(=O)=O [SULFAMIDE]	log10(Ki)	-0.85

For each of the compounds below, note its log10(Ki).
1. O=[N+]([O-])O
2. N#CS
3. I [IODIDE]
4. N#CO [CYANATE]

Result block:
1.56
-0.13
0.73
-3.60

Measured values drawn from ChEMBL document CHEMBL1138690 for this set.
